System: NO production in LPS-induced macrophages (RAW 264.7)
Test: Inhibition of NO production in LPS-induced macrophages (RAW 264.7), nitrite accumulation
Type: cell-based
Conditions: Mus musculus, RAW264.7, read-out: NO inhibitory activity (IC50)
measured property: IC50 (µM)
Entry rule: numbers only, all in µM.

Please report IC50 for the following molecule: C[C@]12CCC(=O)C=C1CC[C@@H]1[C@@H]2[C@@H](O)C[C@@]2(C)[C@H]1CC[C@]2(O)C(=O)CO [Hydrocortisone, hydrocortisone, reference compound]
53.7
